# reported Stability of Cannabinoids in AB Red; entries follow
experimental.details: Stability of cannabinoid and Vitamin E components of Beverage 2 (AB Red) stored at 8° C. and 21-25° C., LCMSMS over 570 days
conditions.used: 21-25° C., 2 days
readout.type: Stability of Cannabinoids in AB Red (µg/mL)

>  <compound>
C=C(C)[C@@H]1CCC(C)=C[C@H]1c1c(O)cc(CCCCC)c(C(=O)O)c1O

>  <unit.tag>
µg/mL

>  <experimental.result>
1.65

$$$$
>  <compound>
CCCCCc1cc(O)c2c(c1)OC(C)(C)[C@@H]1CCC(C)=C[C@@H]21 [D9 THC, delta-9-tetrahydrocannabinol, reference compound]

>  <unit.tag>
µg/mL

>  <experimental.result>
13.0

$$$$
>  <compound>
CCCCCc1cc(O)c2c(c1)OC(C)(CCC=C(C)C)C=C2 (stereo not drawn)

>  <unit.tag>
µg/mL

>  <experimental.result>
0.28

$$$$
>  <compound>
CCCCCc1cc2c(c(O)c1C(=O)O)[C@@H]1C=C(C)CC[C@H]1C(C)(C)O2 [D9 THCA, delta-9-tetrahydrocannabinolic acid]

>  <unit.tag>
µg/mL

>  <experimental.result>
1.30

$$$$
>  <compound>
CCCCCc1cc(O)c2c(c1)OC1(C)CCC3C1C2C3(C)C (stereo not drawn)

>  <unit.tag>
µg/mL

>  <experimental.result>
0.50

$$$$
>  <compound>
C=C(C)[C@@H]1CCC(C)=C[C@H]1c1c(O)cc(CCC)cc1O

>  <unit.tag>
µg/mL

>  <experimental.result>
0.20

$$$$
>  <compound>
CCCCCc1cc(O)c2c(c1)OC(C)(C)c1ccc(C)cc1-2

>  <unit.tag>
µg/mL

>  <experimental.result>
2.83

$$$$
>  <compound>
CCCCCc1cc(O)c(C/C=C(\C)CCC=C(C)C)c(O)c1

>  <unit.tag>
µg/mL

>  <experimental.result>
4.61

$$$$
>  <compound>
CCCc1cc(O)c2c(c1)OC(C)(C)[C@@H]1CCC(C)=C[C@@H]21 [THCV, delta-9-tetrahydrocannabivarin]

>  <unit.tag>
µg/mL

>  <experimental.result>
3.20

$$$$

---

experimental.details: Stability of cannabinoid and Vitamin E components of Beverage 1 (AB White) stored at 8° C. and 21-25° C., LCMSMS over 570 days
Format: physicochemical
conditions.used: beverage stored at 21-25° C., day 30
The class of a record is decided solely by its measured Stability in AB White, 21-25° C. (content by LCMSMS); consult low (below 0.5 µg/mL), medium (0.5 µg/mL to below 3 µg/mL), high (3 µg/mL or more)

>  <compound>
C=C(C)[C@@H]1CCC(C)=C[C@H]1c1c(O)cc(CCCCC)c(C(=O)O)c1O

>  <class.label>
medium

$$$$
>  <compound>
CCCCCc1cc(O)c2c(c1)OC1(C)CCC3C1C2C3(C)C (stereo not drawn)

>  <class.label>
medium

$$$$
>  <compound>
CCCCCc1cc(O)c2c(c1)OC(C)(C)[C@@H]1CCC(C)=C[C@@H]21 [D9 THC, delta-9-tetrahydrocannabinol, reference compound]

>  <class.label>
high

$$$$
>  <compound>
C=C(C)[C@@H]1CCC(C)=C[C@H]1c1c(O)cc(CCC)cc1O

>  <class.label>
low

$$$$
>  <compound>
CCCc1cc(O)c2c(c1)OC(C)(C)[C@@H]1CCC(C)=C[C@@H]21 [THCV, delta-9-tetrahydrocannabivarin]

>  <class.label>
high

$$$$
>  <compound>
CCCCCc1cc(O)c(C/C=C(\C)CCC=C(C)C)c(O)c1

>  <class.label>
high

$$$$
>  <compound>
CCCCCc1cc(O)c2c(c1)OC(C)(CCC=C(C)C)C=C2 (stereo not drawn)

>  <class.label>
low

$$$$
>  <compound>
CCCCCc1cc(O)c2c(c1)OC(C)(C)c1ccc(C)cc1-2

>  <class.label>
medium

$$$$
>  <compound>
CCCCCc1cc2c(c(O)c1C(=O)O)[C@@H]1C=C(C)CC[C@H]1C(C)(C)O2 [D9 THCA, delta-9-tetrahydrocannabinolic acid]

>  <class.label>
medium

$$$$

---

# reported Stability of Cannabinoids in AB Red; entries follow
experimental.details: Stability of cannabinoid and Vitamin E components of Beverage 2 (AB Red) stored at 8° C. and 21-25° C., LCMSMS over 570 days
conditions.used: 8° C., 420 days
readout.type: Stability of Cannabinoids in AB Red (µg/mL)

>  <molecule>
CCCCCc1cc(O)c(C/C=C(\C)CCC=C(C)C)c(O)c1

>  <readout.type>
Stability of Cannabinoids in AB Red

>  <experimental.result>
4.58

$$$$
>  <molecule>
CCCCCc1cc(O)c2c(c1)OC(C)(C)c1ccc(C)cc1-2

>  <readout.type>
Stability of Cannabinoids in AB Red

>  <experimental.result>
2.69

$$$$
>  <molecule>
CCCCCc1cc(O)c2c(c1)OC1(C)CCC3C1C2C3(C)C (stereo not drawn)

>  <readout.type>
Stability of Cannabinoids in AB Red

>  <experimental.result>
0.494

$$$$
>  <molecule>
CCCc1cc(O)c2c(c1)OC(C)(C)[C@@H]1CCC(C)=C[C@@H]21 [THCV, delta-9-tetrahydrocannabivarin]

>  <readout.type>
Stability of Cannabinoids in AB Red

>  <experimental.result>
3.13

$$$$
>  <molecule>
CCCCCc1cc(O)c2c(c1)OC(C)(C)[C@@H]1CCC(C)=C[C@@H]21 [D9 THC, delta-9-tetrahydrocannabinol, reference compound]

>  <readout.type>
Stability of Cannabinoids in AB Red

>  <experimental.result>
12.4

$$$$
>  <molecule>
CCCCCc1cc(O)c2c(c1)OC(C)(CCC=C(C)C)C=C2 (stereo not drawn)

>  <readout.type>
Stability of Cannabinoids in AB Red

>  <experimental.result>
0.277

$$$$
>  <molecule>
CCCCCc1cc2c(c(O)c1C(=O)O)[C@@H]1C=C(C)CC[C@H]1C(C)(C)O2 [D9 THCA, delta-9-tetrahydrocannabinolic acid]

>  <readout.type>
Stability of Cannabinoids in AB Red

>  <experimental.result>
1.29

$$$$
>  <molecule>
C=C(C)[C@@H]1CCC(C)=C[C@H]1c1c(O)cc(CCC)cc1O

>  <readout.type>
Stability of Cannabinoids in AB Red

>  <experimental.result>
0.193

$$$$
>  <molecule>
C=C(C)[C@@H]1CCC(C)=C[C@H]1c1c(O)cc(CCCCC)c(C(=O)O)c1O

>  <readout.type>
Stability of Cannabinoids in AB Red

>  <experimental.result>
1.63

$$$$

---

experimental.details: Stability of cannabinoid and Vitamin E components of Beverage 1 (AB White) stored at 8° C. and 21-25° C., LCMSMS over 570 days
Format: physicochemical
conditions.used: beverage stored at 8° C., day 12
# reported Stability in AB White, 8° C. (content by LCMSMS); entries follow
readout.type: Stability in AB White, 8° C. (content by LCMSMS) (µg/mL)

>  <molecule>
CCCc1cc(O)c2c(c1)OC(C)(C)[C@@H]1CCC(C)=C[C@@H]21 [THCV, delta-9-tetrahydrocannabivarin]

>  <unit.tag>
µg/mL

>  <experimental.result>
3.50

$$$$
>  <molecule>
C=C(C)[C@@H]1CCC(C)=C[C@H]1c1c(O)cc(CCCCC)cc1O [CBD, cannabidiol, reference compound]

>  <unit.tag>
µg/mL

>  <experimental.result>
28.10

$$$$
>  <molecule>
C=C(C)[C@@H]1CCC(C)=C[C@H]1c1c(O)cc(CCCCC)c(C(=O)O)c1O [CBDA, cannabidiolic acid]

>  <unit.tag>
µg/mL

>  <experimental.result>
1.71

$$$$
>  <molecule>
C=C(C)[C@@H]1CCC(C)=C[C@H]1c1c(O)cc(CCC)cc1O [CBDV, cannabidivarin]

>  <unit.tag>
µg/mL

>  <experimental.result>
0.150

$$$$
>  <molecule>
CCCCCc1cc2c(c(O)c1C(=O)O)[C@@H]1C=C(C)CC[C@H]1C(C)(C)O2 [D9 THCA, delta-9-tetrahydrocannabinolic acid]

>  <unit.tag>
µg/mL

>  <experimental.result>
0.942

$$$$
>  <molecule>
CCCCCc1cc(O)c2c(c1)OC(C)(C)c1ccc(C)cc1-2 [CBN, cannabinol]

>  <unit.tag>
µg/mL

>  <experimental.result>
2.80

$$$$
>  <molecule>
CCCCCc1cc(O)c2c(c1)OC(C)(CCC=C(C)C)C=C2 (stereo not shown) [CBC, cannabichromene]

>  <unit.tag>
µg/mL

>  <experimental.result>
0.319

$$$$

---

Format: physicochemical
conditions.used: stored at room temperature (21-25° C.), day 330
In plain terms, low Stability in Powder Concentrate (content by LCMSMS), meaning strictly below 0.5 mg/g powder, gives y, and everything else gives n.

>  <molecule>
CCCCCc1cc(O)c2c(c1)OC(C)(C)[C@@H]1CCC(C)=C[C@@H]21 [D9 THC, delta-9-tetrahydrocannabinol, reference compound]

>  <class.label>
n

$$$$
>  <molecule>
CCCCCc1cc(O)c2c(c1)OC(C)(CCC=C(C)C)C=C2 (stereo not drawn) [CBC, cannabichromene]

>  <class.label>
y

$$$$
>  <molecule>
CC(=O)Oc1c(C)c(C)c2c(c1C)CCC(C)(CCC[C@H](C)CCC[C@H](C)CCCC(C)C)O2 (stereo partly drawn) [α-Tocopheryl acetate]

>  <class.label>
n

$$$$
>  <molecule>
CCCc1cc(O)c2c(c1)OC(C)(C)[C@@H]1CCC(C)=C[C@@H]21 [THCV, delta-9-tetrahydrocannabivarin]

>  <class.label>
n

$$$$
>  <molecule>
C=C(C)[C@@H]1CCC(C)=C[C@H]1c1c(O)cc(CCCCC)c(C(=O)O)c1O [CBDA, cannabidiolic acid]

>  <class.label>
y

$$$$

Source: patent US20240415914A1
